# system tested: Shiga toxin 2 (Escherichia coli O157:H7) (UniProt P09385+P09386)
# run description: E. coli 0.157:H7 Shiga Toxin SOP - stx2 screening assay
# Type: functional
# Set-up: scale not given: direction of the effect not stated beside the values
# measurement parameters: 30 µM
endpoint: Percent Effect
Don't forget the unit after the number, please.

Value lookup for Percent Effect; key = `Cc1cc(C(=O)N2C[C@@H]3COC[C@]3(COCc3cccnc3)C2)no1`
-6.54%

Value lookup for Percent Effect; key = Cn1nnc2c1CCN(Cc1nccs1)C2COCc1ccccc1 (stereo not drawn)
-58%

Value lookup for Percent Effect; key = CCC(CNC(=O)c1ccc(Br)o1)N1CCc2ccccc2C1 (stereo not drawn)
8.06%

Value lookup for Percent Effect; key = Cc1ccc(OCCCNC(=O)NC(C)c2nncn2C)cc1 (stereo not drawn)
7.34%

Value lookup for Percent Effect; key = `O=C(c1ccco1)N1CCC2(CC1)C(=O)NCCN2CC1CC1`
-10.1%

Value lookup for Percent Effect; key = `Cc1cc(N2CCC(CC(N)=O)CC2)nc(-c2ccncc2)n1`
0.525%

Value lookup for Percent Effect; key = CCSCCNC(=O)C(c1cccc(F)c1)N(C)C (stereo not drawn)
12.8%

Value lookup for Percent Effect; key = `CCn1cc(CN2CCCN(C(=O)CCc3ccncc3)CC2)cn1`
-80.5%

Value lookup for Percent Effect; key = `O=C(CCSc1ccc(F)cc1)NS(=O)(=O)c1ccc2c(c1)OCCO2`
-1.47%

Value lookup for Percent Effect; key = `N#Cc1ncn(CCC(=O)Nc2ccc(Cl)cc2F)n1`
-41%

Value lookup for Percent Effect; key = O=C(NCC1CC1)C1=NOC2(CCN(S(=O)(=O)c3cccs3)C2)C1 (stereo not drawn)
-4.25%

Value lookup for Percent Effect; key = `CCCNC(=O)CCC(=O)Nc1ccc(-n2cncn2)c(F)c1`
5.57%

Value lookup for Percent Effect; key = `CCn1c(CN(C)C)nnc1C1CCN(Cc2cccc(OC)c2)CC1`
-66.9%

Value lookup for Percent Effect; key = CCc1noc(CNc2ccc(C(=O)N3CCCC(C)C3)cc2C)n1 (stereo not drawn)
19.1%

Value lookup for Percent Effect; key = COc1ccccc1C(O)CNC(=O)NCc1cccnc1OC (stereo not drawn)
9.52%

Value lookup for Percent Effect; key = `NC(=O)CCN1CCC(C(=O)c2cc(F)ccc2F)CC1`
-0.638%

Value lookup for Percent Effect; key = `c1cc2nc(C3CCN(CC4CC4)CC3)nn2cc1N1CCCC1`
-3.75%

Value lookup for Percent Effect; key = Cc1cnn(CC2CCCN2C(=O)c2ccc3[nH]nnc3c2)c1 (stereo not drawn)
-49.7%

Value lookup for Percent Effect; key = COc1cccc(CNC(CN2CCN(C)CC2)c2ccccc2)c1 (stereo not drawn)
-26%

Value lookup for Percent Effect; key = `O=S(=O)(N1CCCCC1)N1CCc2nc(C3CCNCC3)ncc2C1`
13.4%

Value lookup for Percent Effect; key = `O=C(c1cscn1)N1CCC2(CCN(Cc3nccs3)C2)CC1`
-5.87%

Value lookup for Percent Effect; key = `CC1(C)Cc2ccccc2-c2nc(NCCO)[nH]c(=O)c21`
0.00332%

Value lookup for Percent Effect; key = `CSCc1cccc(S(=O)(=O)N2CCSCC2)c1`
0.0259%

Value lookup for Percent Effect; key = `Cc1nc(CN2C[C@@H]3CN(C(=O)C4CC4)C[C@@H]3C2=O)cs1`
-17.6%

Value lookup for Percent Effect; key = CN(C)C(=O)N1CCC2(CCCN(Cc3cnn(C)c3)C2)C1 (stereo not drawn)
0.121%

Value lookup for Percent Effect; key = `CCn1cc(C(=O)NCc2csc(Br)c2)cn1`
6.72%

Value lookup for Percent Effect; key = `O=C(Cc1ccccn1)N1CCc2nc(-c3cnccn3)nc(O)c2C1`
4.64%

Value lookup for Percent Effect; key = `Cn1ccc(C(=O)N2CCC(Cc3cnc4[nH]ccc4c3)CC2)n1`
19.7%

Value lookup for Percent Effect; key = `c1ccc(CCCN2CC(n3cccn3)C2)cc1`
-12.1%

Value lookup for Percent Effect; key = `CCS(=O)(=O)CCNC(=O)c1ccc(-c2ccc(C)cc2)cc1F`
-42.5%

Value lookup for Percent Effect; key = `COc1cc(C)nc(N2CCN(C(=O)CCn3cc(C)cn3)CC2)n1`
12%

Value lookup for Percent Effect; key = CCN(C(=O)COC)C(c1cccnc1)c1ccc2c(c1)CCO2 (stereo not drawn)
-29.4%

Value lookup for Percent Effect; key = CC(C)N1CC(C(=O)NCCc2csc(-c3ccncc3)n2)CC1=O (stereo not drawn)
-26.5%

Value lookup for Percent Effect; key = `CCC1=N[C@@]2(CC[C@@H]3CN(C(=O)NC(C)C)C[C@@H]32)C(=O)N1C`
3.05%

Value lookup for Percent Effect; key = COCC1c2c(cnn2CC2CCOCC2)CCN1Cc1ccoc1 (stereo not drawn)
-9.29%

Value lookup for Percent Effect; key = CCCNC(=O)C(C)n1cc(Br)cn1 (stereo not drawn)
-46.7%

Value lookup for Percent Effect; key = COCCc1noc(CN2CCCCC2Cn2nc(C)cc2C)n1 (stereo not drawn)
1.32%

Value lookup for Percent Effect; key = CC(Cn1cccn1)NC(=O)NCc1ccc(S(N)(=O)=O)cc1 (stereo not drawn)
14.9%

Value lookup for Percent Effect; key = c1ccc(OCC2CC3(CCN(c4ncccn4)CC3)CO2)nc1 (stereo not drawn)
-0.916%

Value lookup for Percent Effect; key = `CO[C@H]1CCN(Cc2cccc(C)n2)[C@@H]2CN(Cc3cccnc3)C[C@H]12`
-14.4%

Value lookup for Percent Effect; key = Cn1ncc2c1CCCC2NCc1cc(Br)cs1 (stereo not drawn)
7.1%

Value lookup for Percent Effect; key = `Cc1nc(N2CCN(C(=O)c3ccc(O)cc3)CC2)c2cnn(C)c2n1`
3.77%

Value lookup for Percent Effect; key = `CNC(=O)c1cccc(NC(=O)Cn2nc(-c3cccs3)oc2=O)c1`
-55.6%

Value lookup for Percent Effect; key = CC(O)CN1CCN(C(=O)CN(C)c2ccc(Cl)cn2)CC1 (stereo not drawn)
-10.6%

Value lookup for Percent Effect; key = CCc1cnc(CNc2ccc(C(=O)N3CCCC(C)C3)cc2C)o1 (stereo not drawn)
21.6%

Value lookup for Percent Effect; key = CCOCC(O)CN1CCN(C(=O)CC(C)(C)C)CC1 (stereo not drawn)
14.9%

Value lookup for Percent Effect; key = CSCc1cccc(C(=O)N2CCN(CC(C)O)CC2)c1 (stereo not drawn)
7.3%

Value lookup for Percent Effect; key = O=C(COCC1CC1)N1CCCC(n2cccn2)C1 (stereo not drawn)
-15.2%
